These entries and their values trace back to ChEMBL document CHEMBL1961873.

Recorded inhibition by entry
# assayedSystem: Cyclin-dependent kinase 4 (Homo sapiens) (UniProt P11802)
# Sequence (P11802 whole entry): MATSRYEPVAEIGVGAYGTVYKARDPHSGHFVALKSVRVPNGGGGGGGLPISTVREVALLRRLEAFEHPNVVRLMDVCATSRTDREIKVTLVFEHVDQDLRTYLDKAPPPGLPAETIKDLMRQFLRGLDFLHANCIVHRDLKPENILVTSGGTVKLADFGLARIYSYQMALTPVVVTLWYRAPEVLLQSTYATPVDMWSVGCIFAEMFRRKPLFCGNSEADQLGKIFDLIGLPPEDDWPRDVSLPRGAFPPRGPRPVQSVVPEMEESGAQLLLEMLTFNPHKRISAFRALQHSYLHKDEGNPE
# assayConditions: at 0.1 µM
# Description: GSK_PKIS: CDK4/cyclinD mean inhibition at 0.1 uM [Nanosyn]
Value expressed in %; do not type the unit.

Known inhibition results, listed for orientation:
molecule | inhibition, %
CCn1c(-c2nonc2N)nc2c(N3CCCC3)nccc21 | 15.6
CCCN1CCC=C(c2ccc(Nc3nc(Nc4ccccc4C(N)=O)c4cc[nH]c4n3)c(C)c2)C1 | 4.35
COc1ccccc1Nc1ncc(-c2ccccc2)o1 | 0.89
CS(=O)(=O)CCNCc1ccc(-c2ccc3ncnc(Nc4ccc(OCc5cccc(F)c5)c(C(F)(F)F)c4)c3c2)o1 | 2.52
O=C1NC(=O)C(c2cccc(Cl)c2)=C1Nc1ccc(O)c(Cl)c1 | 2.23

## Task Report inhibition, nothing else, for this molecule: COc1cc2ncn(-c3cc(O[C@@H](C)c4ccccc4Cl)c(C(N)=O)s3)c2cc1OC
## Result 2.39

## Task Report inhibition, nothing else, for this molecule: O=C1NC(=O)C(N2CCc3ccccc32)=C1c1ccc(Cl)cc1
## Result 3.68

## Task Report inhibition, nothing else, for this molecule: COc1ccc(-c2coc3ncnc(N)c23)cc1
## Result 4.16

## Task Report inhibition, nothing else, for this molecule: CC1=C(C(=O)Nc2ccc3[nH]ncc3c2)C(c2ccc(F)cc2)NC(=O)N1 (stereo not given)
## Result 1.79

## Task Report inhibition, nothing else, for this molecule: COc1cc2ncn(-c3cc(OCc4ccccc4C(F)(F)F)c(C(N)=O)s3)c2cc1OC
## Result -1.16
